Test: Examination of solubility, visually and by microscopy
Assay type: physicochemical
Settings: DMSO, organic solvent or mixture; concentration 100 μg/ml
Reported metric: solubility

Q) Quick check: solubility of "COC(=O)[C@H](CC(C)C)NC(=O)[C@H](CCSC)NC(=O)[C@@H](C[C@@H](O)[C@H](CC(C)C)NC(=O)OC(C)(C)C)C(C)C" ?
A) > 100 µg/mL
